Overview of reported IC50 Assay II, Ba/F3-huTSLPR proliferation across a group of binders:
- assayedTarget: T1, human TSLPR on Ba/F3-hTSLPR-hIL7Ra cells (human, UniProt Q9HC73 23-371)
- T1 sequence (looked up): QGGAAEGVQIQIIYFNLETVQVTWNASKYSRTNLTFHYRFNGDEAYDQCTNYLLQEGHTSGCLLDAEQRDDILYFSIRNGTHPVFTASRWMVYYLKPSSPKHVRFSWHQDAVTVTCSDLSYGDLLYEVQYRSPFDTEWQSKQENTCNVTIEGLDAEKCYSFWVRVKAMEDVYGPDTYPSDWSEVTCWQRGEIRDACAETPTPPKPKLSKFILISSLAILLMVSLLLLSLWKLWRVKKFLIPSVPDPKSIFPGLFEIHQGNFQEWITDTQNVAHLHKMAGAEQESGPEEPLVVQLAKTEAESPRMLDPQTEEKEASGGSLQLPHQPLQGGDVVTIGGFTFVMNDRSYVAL
- assayProtocol: cell-based or functional assay
measurementName: IC50 Assay II, Ba/F3-huTSLPR proliferation

>  <binder>
mouse antibody 54C11 (antibody, mouse IgG2a, V domains shown, Mouse IgG2a/kappa from hybridoma; also called m54C11; LB55.54C11.3G11) VH: QVQLQQSGPEVVRPGVSVKISCKGSGFTFTDYAIHWVRQSHAKSLEWIGIIRPSNGNTNCDQKFKDKATMTVDKSSSTAYLDLARLTSEDSAIYYCSRSRVWGGSLAYWGQGTLVTVSA VL: DIVMTQSQKFMSTSVGDRVSVTCKASQNVGTNIAWYQQKPGQSPEALIYSASYRYSGVPDRFTGSGSGTDFTLTITNVQSEDLAEYFCQQYKSYPWTFGGGTKLEIKR

>  <reading>
0.0188 mg/L

$$$$
>  <binder>
mouse antibody 4G8 (antibody, mouse IgG1, V domains shown, Mouse IgG1/kappa from hybridoma; also called m4G8; LB55.4G8.2A6) VH: QVQLKQSGPGLVQPSQSLSITCTVSGFSLTIYGLHWVRQSPGKGLEWLGVIWRGGSTDYNAAFMSRLRITKDNSKSQVFFKMDSLQADDTAIYYCAKPYYDYDGNWYFDVWGAGTTVTVSS VL: DIVMTQSQKFMSTSVGDRVSVTCKASQNVGTNVAWYQKKSGQSPKPLIYSASSHCSEVPDRFTGSGSGTDFTLTINNVQSEDLAEYFCQQYNRYPLTFGTGTKLEVRR

>  <reading>
0.202 mg/L

$$$$
>  <binder>
mouse anti human TSLPR antibody 13H5 (antibody, mouse IgG1, V domains shown, Mouse IgG1/kappa purified from hybridoma supernatant; also called m13H5; LB55.13H5.2C3) VH: QVLLKQSGPSLVQPSQSLSITCTVSGFSLSRYGVHWVRQSPGKGLEWLGVIWRSGSTDYNAAFMSRLSITQDNSKSQVFFNMNSLQSDDSAIYYCAKKAFYVMDYWGQGTSVTVSS VL: DIQMTQTTSSLSASLGDRVTISCRASQDISIYLNWYQQKPDGTVKLLIYYTSRLHSGVPSRFSGSGSGTNFSLTITNLEEEDIATYFCQQGNTLPWTFGGGTKLEIKR

>  <reading>
0.014 mg/L

$$$$
>  <binder>
mouse antibody 49A5 (antibody, mouse IgG1, V domains shown, Mouse IgG1/kappa from hybridoma; also called m49A5; LB55.49A5.2F9) VH: QVQLKQSGPGLVQPSQSLSITCTVSGFSLTTYGVHWVRQSPGKGLEWLGVIWRGGNTAYNPAFMSRLSITKDNSKSQVFFKMNSLQADDTAIYHCAKKSYYGYHAMGYWGQGTSVTVSS VL: DIQMTQTTSSLSASLGDRVTINCRASQDISNYLNWYQQNPDGTVKLLIYYTSRLHSGVPSRFSGSGSGTDYSLTISNLEQEDIATYFCQQANTLPWTFGGGTKLEIKR

>  <reading>
0.108 mg/L

$$$$
>  <binder>
mouse antibody 61C11 (antibody, mouse IgG2a, V domains shown, Mouse IgG2a/kappa from hybridoma; also called m61C11; LB55.61C11.2B1) VH: QAYLQQSGAELVRSGASVKMSCKASGYTFTSYNLHWIKLTPGQGLEWIGYIYPGLNGTLYNQKFRGKATLTADTSSSTAYMQISSLTSEDSAVYFCARSDYGKAWFAYWGRGTLVTVSA VL: DILLTQSPAILSVSPGERVSFSCRASQSIATKIHWYQQRTDHSPRLLIQLGSESISGIPSRFSGSGSGTDFTFTINSVESEDIAVYYCQQSNRYPYTFGGGTKLEVKR

>  <reading>
0.139 mg/L

$$$$
